target_system: hCB1 (Homo sapiens, UniProt P21554)
Sequence (P21554 whole entry): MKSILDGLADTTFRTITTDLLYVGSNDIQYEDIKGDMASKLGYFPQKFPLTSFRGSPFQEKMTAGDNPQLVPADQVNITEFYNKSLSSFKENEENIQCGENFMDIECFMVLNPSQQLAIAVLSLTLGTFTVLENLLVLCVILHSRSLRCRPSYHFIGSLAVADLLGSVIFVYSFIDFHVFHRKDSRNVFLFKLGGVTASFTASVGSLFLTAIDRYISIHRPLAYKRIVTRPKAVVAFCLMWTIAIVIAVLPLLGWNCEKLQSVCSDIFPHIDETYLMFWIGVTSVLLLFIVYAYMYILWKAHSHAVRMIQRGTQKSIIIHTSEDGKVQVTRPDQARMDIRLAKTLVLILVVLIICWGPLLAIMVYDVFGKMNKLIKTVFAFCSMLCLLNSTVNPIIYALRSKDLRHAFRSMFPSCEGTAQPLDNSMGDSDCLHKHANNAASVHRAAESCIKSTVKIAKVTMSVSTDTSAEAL
protocol_summary: bioSensAll ebBRET signaling profiling, hCB1
Assay type: cell-based
Design: host or cells: HEK293SL cells, transient PEI transfection
measurement_parameters: Gi1 biosensor; Log [Compound] (M) -8.68787
recorded_metric: Gi1 hCB1 response
// print number alone

Examples with answers:
compound | target_system | recorded_measurement
COC(=O)C(NC(=O)c1cc(C)n(-c2cccc(C(F)(F)F)c2)n1)c1cccs1 (centres unmarked) | hCB1 (Homo sapiens, UniProt P21554) | 9.254
Cc1cc(C(=O)N2CC3(CCC3)[C@H]2[C@H]2CCCO2)nn1-c1cccc(C(F)(F)F)c1 | hCB1 (Homo sapiens, UniProt P21554) | -2.138
COC(=O)C(NC(=O)c1cc(C)n(-c2cccc(F)c2)n1)c1cccs1 (centres unmarked) | hCB1 (Homo sapiens, UniProt P21554) | 2.204
Cc1cc(C(=O)N2CC3(CCC3)[C@@H]2[C@@H]2CCCO2)nn1-c1cccc(C(F)(F)F)c1 | hCB1 (Homo sapiens, UniProt P21554) | 5.83
COc1cccc(C(NC(=O)c2cc(C)n(-c3cccc(C(F)(F)F)c3)n2)c2ccco2)c1 (centres unmarked) | hCB1 (Homo sapiens, UniProt P21554) | -1.377

q: Hi! What's the reported Gi1 hCB1 response for COC(=O)[C@@H]1[C@@H]2CCC[C@@H]2CN1C(=O)c1cc(C)n(-c2cccc(C(F)(F)F)c2)n1 on hCB1 (Homo sapiens, UniProt P21554)?
a: 6.703

q: Try this compound next: COC(=O)[C@@H]1[C@@H]2CC[C@@H]2CN1C(=O)c1cc(C)n(-c2cccc(C(F)(F)F)c2)n1
a: 4.689

q: Try this compound next: COC(=O)[C@](C)(NC(=O)c1cc(C)n(-c2cccc(C(F)(F)F)c2)n1)c1cccs1
a: 15.566

q: Try this compound next: Cc1cc(C(=O)NC(c2ccccc2)c2ccco2)nn1-c1cccc(C(F)(F)F)c1 (centres unmarked)
a: 1.913

q: Try this compound next: Cc1cc(C(=O)N(C)C(c2ccco2)c2ccco2)nn1-c1cccc(C(F)(F)F)c1
a: 16.0808

* * *

Form field: Gi1 hCB1 (one value per entry).
target_system: hCB1 (Homo sapiens, UniProt P21554)
protocol_summary: bioSensAll ebBRET signaling profiling, hCB1
Assay type: cell-based
Set-up: host or cells: HEK293SL cells, transient PEI transfection
measurement_parameters: Log [Compound] (M) -13; single replicate values, FigS6a
// print number alone

Examples with answers:
compound | Gi1 hCB1
Cc1nn(Cc2ccc(Cl)cc2)c(C)c1C(=O)OCC1CSc2ccccc2O1 (stereo not drawn) | -0.7885
Brc1cc2c(cc1Cc1noc(-c3cnn(CC4CC4)c3)n1)OCO2 | 0.06671
Cn1nc(-c2nnc(C(C)(C)Oc3ccc(C(F)(F)F)cc3)o2)c2ccccc2c1=O | -4.779
Cc1c(C(=O)OCC2CSc3ccccc3O2)cnn1Cc1ccccc1 (stereo not drawn) | 0.2409
Cn1nc(-c2nnc(C(C)(C)Oc3ccc(Cl)cc3)o2)c2ccccc2c1=O | -5.191

q: Please look up its Gi1 hCB1: Cc1nc(CC2CC2)oc1-c1nc(Cc2cc3c(cc2Br)OCO3)no1
a: 6.94

Just for reference, paper PMC11882969 is where these values come from.
